Test system: Inhibin beta A chain (activin A)
Test Protocol: INHBA (activin A) binders on microarrays, primary screen, biochemical, small-molecule microarray, 635 nm fluorescence scan (AID 1107);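 further: mouse activin A protein probed at 4.33 µg/mL on printed slides; score merges bound-protein fluorescence near 667 nm with spot signal-to-noise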
Condition Summary: small-molecule microarray binding, higher = more signal
Measurement Name: composite z-score
One number for each entry.

CC(C)C(=C=CC[C@@H](O)c1ccc(OCCO)cc1)C[C@@H](O)c1ccccn1: 0.59
OCCCC1=CC(c2cccs2)N(Cc2cc3c(cc2Br)OCO3)CC1 (stereo not drawn): 1.01
CC1CC/C=C\[C@H]2OC34C=CCN(C(C)(C)C)C(=O)[C@H]3N(CCO)C(=O)[C@@H]4C2C(=O)O1 (stereo partly drawn): -0.0663
COC(=O)[C@@]1(Cc2ccccc2)[C@H]2c3cc(C(=O)N4CCCC4)n(Cc4ccc(S(C)(=O)=O)cc4)c3C[C@H]2CN1C(=O)c1ccccc1: 1.3
CC(C)C(CO)N1C(=O)[C@@H]2C3C(=O)OCCC/C=C\[C@H]3OC23C=CCN(CCN2CCOCC2)C(=O)[C@@H]13 (stereo partly drawn): 0.88

Provide composite z-score for all items below, preserving their order.
1. Cc1ccc([C@@H]2C[C@@H](Sc3ccccc3)[C@H](C(=O)O)CN2S(=O)(=O)c2ccc(C)cc2)cc1
2. C=C[C@H](CO[Si](CC)(CC)CC)N(Cc1ccc(OC(C)=O)c(OC)c1)S(=O)(=O)c1ccc(Br)cc1
3. Cc1nc2cc(Br)ccc2c(=O)o1

1: 0.289; 2: 1.1; 3: 0.435

---

System: Noggin (protein binding on small-molecule microarray)
Test Protocol: Noggin binders on small-molecule microarray, primary screen, biochemical, 635/667 nm fluorescence (AID 1095);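 further: score merges 667 nm feature fluorescence with signal to noise over triplicate slides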
Condition Summary: 635 nm fluorescence, higher = more signal
Task for the reader: assign each of the following compounds its reported composite z-score.

C=CCOC(=O)[C@H]1[C@@H]2C(=O)O[C@@H](c3ccccc3)[C@@H](c3ccccc3)N2[C@@H](c2ccc(OCCOC(=O)[C@H]3C[C@H]4C(=O)N[C@@H](CCCCNC(C)=O)C(=O)N4[C@H]3c3cccc(OCCO)c3)cc2)[C@]12C(=O)Nc1ccccc12: 0.664

Provide composite z-score for all items below, preserving their order.
1. O=C1C[C@@](C(=O)NCCN2CCOCC2)(c2ccc([N+](=O)[O-])cc2)[C@@H](c2ccc(CO)cc2)N1CC12CC3CC(CC(C3)C1)C2
2. C=C(C)[C@@H]1CC=C(C(O)C2C=CC3C(=O)N(c4ccccc4)C(=O)C3N2Nc2ccccc2)CC1 (some centres not stated)
3. C=C(/C(=C/C[C@H](OC(C)=O)c1ccccc1OCCO)c1cnc2ccccc2c1)C(C)C
4. NC(=O)NCC#Cc1ccc2c(c1)[C@]1(C(=O)N2)[C@H](c2ccccc2OCCO)N2[C@H](c3ccccc3)[C@H](c3ccccc3)OC(=O)[C@H]2[C@@H]1C(=O)Nc1nc2ccccc2s1
5. COC(=O)[C@H](Cc1ccccc1)N[C@@H](/C=C/C1CC1)[C@H](O)Cc1ccccc1

1.4
0.302
1.24
0.288
-0.327

Requested read-out: composite z-score. Entry: `C=C[C@H](C)[C@@H](OC(=O)Nc1ccc(OC)cc1)c1ccc(O)c2ccccc12`
0.823

---

Test Protocol: basal RPMI8226 viability, no added stimulus, profiling panel, cell-based, calcein-AM fluorescence, 48 h, PK04 Diversity Set (AID 1166);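 further: cells grown under basal conditions without added stimulus; test concentration not given here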
Condition Summary: RPMI8226 myeloma viability, higher = more signal
Hi! Just check whether z-score is below -0.5. Below gives criterion met, equal or above gives criterion not met.

The following compounds have reported results that may help.
CC(C)[Si](C#Cc1ccc(Oc2ccccc2)cc1)(O[Si](C#Cc1ccc(Oc2ccccc2)cc1)(C(C)C)C(C)C)C(C)C: criterion met
CCOC(=O)C[C@H]1[C@H](OC(=O)c2ccc(C(=O)c3ccccc3)cc2)[C@@H](NC(=O)c2ccccc2)c2cc(OCCCO)ccc2N1C(=O)Cc1ccc(OC)cc1: criterion not met

As a next step, examine the compound that follows.
State whether -0.5 exceeds z-score recorded for [N-]=[N+]=NCc1ccccc1[C@@H]1OC(c2ccc(OCCCO)cc2)=N[C@]1(Cc1ccccc1)C(=O)NCC(O)CO (stereo not given in full) .
criterion met
